Every entry's value here was drawn from PubChem BioAssay.

assay-protocol: growth inhibition, single agents and combos, LFS_MB_1R, cell-based, cisplatin or BGB combos, synergistic combos for chromothripsis tumors (AID 1671452);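 also: cells exposed for 96 hours before readout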
experimental-conditions: LFS_MB_1R medulloblastoma cells, at 0.5 µM, stronger effect = higher value

- structure: "Cc1cn([C@@H]2O[C@H](CO)[C@@H](O)[C@@H]2F)c(=O)[nH]c1=O"
  inhibition, %: -24
- structure: "COc1ccc(-n2c(SCCCN3C(=O)c4cccc5cccc(c45)C3=O)nnc2-c2ccncc2)cc1"
  inhibition, %: -13.2
- structure: "NC(=O)c1nc(F)c[nH]c1=O"
  inhibition, %: 1.01
- structure: "Nc1nc2n[nH]nc2c(=O)[nH]1"
  inhibition, %: -9.31
